As shown below, each of these molecules has a reported log10 IC50 value.
Target: menin/MLL (terbium chelate-labeled menin, FITC-MBM1 peptide) (Homo sapiens, UniProt O00255, T541A)
Construct: Menin (a.a 1-610-6xhis tag, 2.3 mg/mL in 20 mM Hepes)
Sequence (O00255 with tags, fused parts or gaps T541A): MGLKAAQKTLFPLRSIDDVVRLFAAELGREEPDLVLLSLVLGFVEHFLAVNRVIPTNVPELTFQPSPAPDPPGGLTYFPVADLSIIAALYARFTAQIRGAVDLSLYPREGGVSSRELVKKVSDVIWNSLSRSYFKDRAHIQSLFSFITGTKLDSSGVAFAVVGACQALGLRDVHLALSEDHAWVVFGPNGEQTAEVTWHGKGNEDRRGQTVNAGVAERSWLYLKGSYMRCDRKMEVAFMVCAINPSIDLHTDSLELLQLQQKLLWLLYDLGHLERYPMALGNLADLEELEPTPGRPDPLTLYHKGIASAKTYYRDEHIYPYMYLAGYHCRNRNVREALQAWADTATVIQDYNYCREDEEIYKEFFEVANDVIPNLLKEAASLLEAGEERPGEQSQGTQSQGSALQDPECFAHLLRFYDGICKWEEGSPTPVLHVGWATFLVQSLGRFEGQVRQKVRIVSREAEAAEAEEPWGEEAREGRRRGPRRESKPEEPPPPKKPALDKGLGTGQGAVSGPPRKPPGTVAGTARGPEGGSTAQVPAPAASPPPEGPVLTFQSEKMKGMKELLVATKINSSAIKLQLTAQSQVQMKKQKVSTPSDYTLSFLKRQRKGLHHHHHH
Experiment: Menin/MLL homogenous time-resolved fluorescence (HTRF) assay
Details: 30 min incubation
All values: base-10 log of IC50 in nM.

MOLECULE: CC(=O)N1CCC(CN2CCCC(Cc3cn(-c4ccc(F)cc4C(=O)N(C)C(C)C)c4cncc(C)c34)CC2)CC1 (centres unmarked) [Compound 160]
log10 IC50: 0.60
--
MOLECULE: CC(=O)N1CCN(CCCC(C(C)C)N2CC[C@H](Cc3cn(-c4ccc(F)cc4C(=O)N(C)C(C)C)c4cncc(C)c34)C2)CC1 (mixture of isomers) [Compound 9]
log10 IC50: -0.86
--
MOLECULE: COCC[C@H](C1CCOCC1)N1CC[C@@H](Cc2cn(-c3ccc(F)cc3C(=O)N(C)C(C)C)c3cncc(C)c23)C1 (single isomer, unassigned) [Compound 252a]
log10 IC50: -0.47
--
MOLECULE: CC(=O)N1CCC(N2CC[C@H](Cc3cn(-c4ccc(F)cc4C(=O)N(C)C(C)C)c4cncc(C)c34)C2)CC1 (single isomer, unassigned) [Compound 81]
log10 IC50: -0.37

INPUT: Determine its reported log10 IC50: CC(=O)N1CCN(CCC[C@@H](C(C)C)N2CC[C@H](Cc3cn(-c4ccc(F)cc4C(=O)N(C)C(C)C)c4cncc(C)c34)C2)CC1 (single isomer, unassigned) [Compound 9b]
OUTPUT: -0.01
